molecular target: BRM (Homo sapiens); construct: made in house; host or cells: High Five insect cells; experiment: ATPase catalytic activity of BRM, ADP-Glo in vitro biochemical assay; conditions: ratio of BRG1 IC50 to BRM IC50
measurement name: Ratio*

CCOC1CCS(=O)(=O)c2cc(C(=O)NCc3cc4nc(-c5cccc(N6CC(C)OC(C)C6)n5)ccc4cn3)ccc2C1 (stereo not drawn) ... 14.45
O=C(NCc1cc2nc(N3CCCc4ccc(C(F)(F)F)cc43)ccc2cn1)c1ccc2c(c1)S(=O)(=O)CCOC2 ... 14.85
C[C@@H]1CN(c2cccc(-c3ccc4cnc(CNC(=O)c5cc(F)c6c(c5)S(=O)(=O)CC[C@H](C)O6)cc4n3)n2)C[C@H](C)O1 ... 15.54
COC[C@H]1C[C@@H]1N(C)c1cccc(-c2ccc3cnc(CNC(=O)c4ccc5c(c4)S(=O)(=O)CCOC5)cc3n2)n1 ... 13.30

[P] CCO[C@H]1CCS(=O)(=O)c2cc(C(=O)NCc3cc4nc(-c5cccc(N6C[C@@H](C)O[C@@H](C)C6)n5)ccc4cn3)ccc2C1
[Q] Cn1cnc2c1CCCN2c1ccc2cnc(CNC(=O)c3ccc4c(c3)S(=O)(=O)CCOC4)cc2n1
# compare Ratio* for P vs Q ; return the one with the smaller value Indicate your choice by writing its label.
Q

---

target: BRM (Homo sapiens, UniProt P51531); construct: made in house; host or cells: High Five insect cells; test: ATPase catalytic activity of BRM, ADP-Glo in vitro biochemical assay; details: ADP-Glo ATPase assay, 30 nM BRM, 400 μM ATP
Sequence (P51531 whole entry): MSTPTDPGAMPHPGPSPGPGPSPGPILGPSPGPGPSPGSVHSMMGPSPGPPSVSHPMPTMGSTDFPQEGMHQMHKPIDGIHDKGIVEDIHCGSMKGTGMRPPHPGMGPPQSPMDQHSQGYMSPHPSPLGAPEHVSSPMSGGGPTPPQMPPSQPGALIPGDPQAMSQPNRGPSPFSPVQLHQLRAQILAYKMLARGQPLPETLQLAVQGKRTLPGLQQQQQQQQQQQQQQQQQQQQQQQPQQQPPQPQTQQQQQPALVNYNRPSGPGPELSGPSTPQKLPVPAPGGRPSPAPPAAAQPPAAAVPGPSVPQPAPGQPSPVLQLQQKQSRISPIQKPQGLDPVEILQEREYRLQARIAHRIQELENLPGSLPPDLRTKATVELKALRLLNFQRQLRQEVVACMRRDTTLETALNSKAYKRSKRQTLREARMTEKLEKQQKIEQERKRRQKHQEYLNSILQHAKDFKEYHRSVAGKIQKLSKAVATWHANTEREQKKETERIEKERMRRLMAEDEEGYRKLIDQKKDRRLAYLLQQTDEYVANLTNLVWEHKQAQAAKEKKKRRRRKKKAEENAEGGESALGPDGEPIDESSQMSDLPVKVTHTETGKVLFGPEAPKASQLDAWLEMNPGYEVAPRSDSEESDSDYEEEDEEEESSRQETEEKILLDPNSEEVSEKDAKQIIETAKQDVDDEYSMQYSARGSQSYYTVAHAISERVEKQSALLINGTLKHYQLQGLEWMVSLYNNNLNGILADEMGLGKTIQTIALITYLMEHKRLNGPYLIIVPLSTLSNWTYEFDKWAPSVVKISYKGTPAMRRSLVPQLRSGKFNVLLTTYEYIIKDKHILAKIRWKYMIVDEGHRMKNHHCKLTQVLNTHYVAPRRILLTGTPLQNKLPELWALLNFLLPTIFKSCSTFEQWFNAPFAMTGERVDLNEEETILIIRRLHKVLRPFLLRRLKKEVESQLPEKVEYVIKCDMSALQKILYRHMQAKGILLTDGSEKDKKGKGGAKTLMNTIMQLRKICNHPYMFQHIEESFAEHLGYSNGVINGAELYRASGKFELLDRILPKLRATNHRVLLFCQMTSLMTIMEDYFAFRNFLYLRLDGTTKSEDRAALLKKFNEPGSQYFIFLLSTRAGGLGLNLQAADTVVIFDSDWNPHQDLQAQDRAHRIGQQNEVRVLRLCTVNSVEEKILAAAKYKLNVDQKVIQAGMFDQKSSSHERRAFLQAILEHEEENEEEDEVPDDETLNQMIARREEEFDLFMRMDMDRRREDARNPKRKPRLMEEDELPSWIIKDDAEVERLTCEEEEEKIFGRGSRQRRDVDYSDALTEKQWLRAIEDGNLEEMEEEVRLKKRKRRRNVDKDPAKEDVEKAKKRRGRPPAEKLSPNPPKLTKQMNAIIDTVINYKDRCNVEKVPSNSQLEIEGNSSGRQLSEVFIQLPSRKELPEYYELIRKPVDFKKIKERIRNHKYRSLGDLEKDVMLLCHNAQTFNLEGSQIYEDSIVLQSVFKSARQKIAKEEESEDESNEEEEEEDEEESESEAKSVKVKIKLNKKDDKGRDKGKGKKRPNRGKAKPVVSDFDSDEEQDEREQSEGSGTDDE
measurement name: IC50 (nM)

Worked cases, IC50 given:
O=C(NCc1cc2nc(-c3cccc(N4CCC(F)(F)CC4)n3)ccc2cn1)c1ccc2c(c1)S(=O)(=O)CCOC2 [Compound 184] ... 80.5
O=C(NCc1cc2nc(N3CCOc4cc(C5CC5)ncc43)ccc2cn1)c1ccc2c(c1)S(=O)(=O)CCOC2 [Compound 739] ... 12.7
O=C(NCc1cc2nc(N3CCOc4cc(N5CCC5)ncc43)ccc2cn1)c1ccc2c(c1)S(=O)(=O)CCOC2 [Compound 834] ... 20.2
COc1nn(C2COC2)cc1-c1ccc2cnc(CNC(=O)c3ccc4c(c3)S(=O)(=O)CCOC4)cc2c1 [Compound 261] ... 16.5
O=C(NCc1cc2nc(-c3cccc(N4CC5CC(C4)O5)n3)ccc2cn1)c1ccc2c(c1)S(=O)(=O)CCOC2 [Compound 276] ... 81.8

[1] CS(=O)(=O)c1cc(C(=O)NCc2cc3nc(-c4cccc(N5CC[C@@H]6COCC6C5)n4)ccc3cn2)ccc1C(F)F (stereo partly shown) [Compound 86]
[2] CCN(CC)c1cccc(-c2ccc3cnc(CNC(=O)c4ccc5c(c4)S(=O)(=O)CCOC5)cc3n2)n1 [Compound 83]
// pick larger IC50 from pair: 1 vs 2 Indicate your choice by writing its label.
1

---

target: BRM (Homo sapiens, UniProt P51531); construct: made in house; host or cells: High Five insect cells; test: ATPase catalytic activity of BRM, ADP-Glo in vitro biochemical assay; conditions: ATPase catalytic activity, ADP-Glo; 30 nM BRM, 400 μM ATP
measurement name: IC50 (nM)

Worked cases, IC50 given:
CC1CCN(c2ccc3cnc(CNC(=O)c4ccc5c(c4)S(=O)(=O)CCOC5)cc3n2)c2ncccc21 (centres unmarked) [Compound 504] ... 28.6
CCN(c1cccc(-c2ccc3cnc(CNC(=O)c4ccc5c(c4)S(=O)(=O)CCOC5)cc3n2)n1)[C@@H](C)COC [Compound 372] ... 10.9
C[C@@H]1CN(c2cccc(-c3ccc4cnc(CNC(=O)c5ccc6c(c5)S(=O)(=O)CCC(C)(C)O6)cc4n3)n2)C[C@H](C)O1 [Compound 559] ... 3930
CCc1ccc2c(n1)N(c1ccc3cnc(CNC(=O)c4ccc5c(c4)S(=O)(=O)CCOC5)cc3n1)CCO2 [Compound 658] ... 7
COCc1cnc2c(c1)CCCN2c1ccc2cnc(CNC(=O)c3ccc4c(c3)S(=O)(=O)CCOC4)cc2n1 [Compound 447] ... 22.1

[a] COc1cnc2c(c1)OCCN2c1ccc2cnc(CNC(=O)c3ccc4c(c3)S(=O)(=O)CCOC4)cc2n1 [Compound 619]
[b] CCN(C[C@H](C)OC)c1cccc(-c2ccc3cnc(CNC(=O)c4ccc5c(c4)S(=O)(=O)CCOC5)cc3n2)n1 [Compound 345]
// pick larger IC50 from pair: a vs b Indicate your choice by writing its label.
b
(b: 15 nM, a: 5.6 nM)

[1] O=C(NCc1cc2nc(N3CCOc4cc(Cl)c(C5CC5)nc43)ccc2cn1)c1ccc2c(c1)S(=O)(=O)CCOC2 [Compound 698]
[2] COC[C@@H]1COc2c(-c3ccc4cnc(CNC(=O)c5ccc6c(c5)S(=O)(=O)CCOC6)cc4n3)cccc2N1C [Compound 639]
[3] Cc1cnc2c(c1)OCCN2c1ccc2cnc(CNC(=O)c3cc(Cl)c4c(c3)S(=O)(=O)CCOC4)cc2n1 [Compound 552]
[4] O=C(NCc1cc2nc(N3CCCc4ccc([C@@H]5CC5(F)F)nc43)ccc2cn1)c1ccc2c(c1)S(=O)(=O)CCOC2 [Compound 689]
Output the entries ranked by IC50 from maximum down to minimum. Answer by naming the labels in the order asked.
1, 2, 4, 3

[I] C[C@H]1COCc2ccc(C(=O)NCc3cc4nc(-c5cccc([C@@H]6CC6(F)F)n5)ccc4cn3)cc2S1(=O)=O [Compound 393]
[II] O=C(NCc1cc2nc(N3CCCC4CCCC43)ccc2cn1)c1ccc2c(c1)S(=O)(=O)CCOC2 (centres unmarked) [Compound 652]
# compare IC50 for I vs II ; return the one with the smaller value Indicate your choice by writing its label.
I
